Below, each of the molecules is paired with its reported Body weight value.
MEASUREMENT_PROTOCOL: Weekly body weight of SHR rats
Type: in vivo, rat
PROTOCOL_CONDITIONS: 120 mg/kg/d intragastric, week 3
Marks after values point to notes of the source that are not given here.

Field: example entries. Status: answers known.
| MOLECULE | Body weight |
| --- | --- |
| Cc1nc(C)c(CO[C@H]2C(=O)O[C@H]3O[C@]45C(=O)OC6C[C@@H](C(C)(C)C)C32[C@@]64[C@@H](O)[C@@H]2OC(=O)[C@@H](C)[C@@]25O)nc1C (stereo partly drawn) | 264.3^▴▴ g |
| Cc1nc(C)c(C(=O)O[C@H]2C(=O)O[C@H]3O[C@]45C(=O)OC6C[C@@H](C(C)(C)C)C32[C@@]64[C@@H](O)[C@@H]2OC(=O)[C@@H](C)[C@@]25O)nc1C (stereo partly drawn) | 262.4^▴▴ g |
| C[C@@H]1C(=O)O[C@H]2[C@H](O)[C@@]34C5C[C@@H](C(C)(C)C)C36[C@@H](OC(=O)[C@@H]6OC(=O)[C@H](c3ccccc3Cl)N3CCc6sccc6C3)O[C@@]4(C(=O)O5)[C@@]12O (stereo partly drawn) | 264.1^▴▴ g |

query: Find the measured Body weight of CCCCC(OC(C)=O)c1ccccc1C(=O)O[C@H]1C(=O)O[C@H]2O[C@]34C(=O)OC5C[C@@H](C(C)(C)C)C21[C@@]53[C@@H](O)[C@@H]1OC(=O)[C@@H](C)[C@@]14O (stereo partly drawn) and report it.
result: 263.9^▴▴ g

query: Find the measured Body weight of CC(=O)Oc1ccccc1C(=O)O[C@H]1C(=O)O[C@H]2O[C@]34C(=O)OC5C[C@@H](C(C)(C)C)C21[C@@]53[C@@H](O)[C@@H]1OC(=O)[C@@H](C)[C@@]14O (stereo partly drawn) and report it.
result: 264.1^▴▴ g

query: Find the measured Body weight of CC1C(=O)OC2C(O)C34C5CC(C(C)(C)C)C36C(OC(=O)C6O)OC4(C(=O)O5)C12O (stereo not drawn) [GB, ginkgolide B] and report it.
result: 263.4^▴▴ g
